Kindly state TGI for each of the entries shown.
Tested on: MALME-3M melanoma
experiment-summary: NCI tumour cell line growth inhibition, 48 h

Task item: Reported TGI for CC1=NN(c2ccccc2)C(=O)C12[C@H](c1ccccc1)C2(C#N)C#N (stereo partly specified) : what is it?
Reply: 11.6 µM

Task item: Entry under review: COC(=O)C(=O)C(C(=O)C(=O)Nc1ccccc1[N+](=O)[O-])c1nc2ccc([N+](=O)[O-])cc2[nH]c1=O (stereo unspecified) . Reported TGI?
Reply: > 100 µM

Task item: # query: TGI of entry `O=C(c1ccccc1)c1nnn(Cc2ccccc2Cn2nnc(C(=O)c3ccccc3)c2C(=O)c2ccccc2)c1C(=O)c1ccccc1`
Reply: > 100 µM

Task item: What does the data say about its TGI? Entry: `COC(=O)[C@@H](NS(=O)(=O)CC12CCC(CC1)C2(C)C)C(C)(C)C`
Reply: > 100 µM

Task item: Looking for the measured TGI of COc1cc(C2c3cc4c(cc3OC(O)C2C)OCO4)cc(OC)c1OC (stereo unspecified) , can you help?
Reply: 73.2 µM

Task item: Look up TGI: `CCC1=C(C[C@H]2NCCc3cc(OC)c(OC)cc32)C[C@H]2c3cc(OC)c(OC)cc3CCN2C1`
Reply: 0.637 µM

Task item: Query: TGI; subject: `O=C(O)Cn1c2c(c3c1-c1ccccc1C3=O)C(=O)CCC2`
Reply: > 100 µM

Task item: Can you look up the measured TGI of `Cc1nc(NS(=O)(=O)c2ccc(NCN3C(=O)c4ccccc4C3=O)cc2)oc1C` for me?
Reply: > 100 µM

Task item: Need TGI, item `O=Nc1c(-c2c(O)[nH]c3ccc(I)cc23)[nH]c2ccccc12`
Reply: > 32.7 µM

Task item: Look up TGI: `CC(C)C[C@H](NC(=O)Cn1cccc(CNC(=O)c2ccccc2)c1=O)B(O)O`
Reply: 1.88 µM

Task item: Please look up its TGI: `Cc1c(Nc2nccc3cc(CN4CC[C@@H](O)C4)cnc23)cccc1-c1cccc(-c2nc3cc(CN4CC[C@@H](C(=O)O)C4)cc(C#N)c3o2)c1C`
Reply: 23.2 µM

Task item: Need TGI of `O=c1[nH]n(CCc2ccccc2CCl)c2ccc([N+](=O)[O-])cc12` , thanks.
Reply: > 100 µM

Task item: Looking for the measured TGI of C=CCC12CC(=O)CCC1c1ccc(OC)cc1C2=O (stereo unspecified) , can you help?
Reply: > 100 µM

Task item: Requested field: TGI. Item: CN1CCC(c2c(O)cc(O)c3c(=O)cc(-c4ccccc4Cl)oc23)C(O)C1 (stereo unspecified)
Reply: 0.598 µM

Task item: Entry CC(=O)OCC1OC(n2c(=O)[nH]c(=O)c3n[nH]nc32)C(OC(C)=O)C(OC(C)=O)C1OC(C)=O (stereo unspecified) : reported TGI = ?
Reply: > 100 µM

Task item: Record request: TGI value, item `O=C1C=CC(=O)c2c(O)c(N3CCOCC3)c(Cl)c(O)c21`
Reply: 0.442 µM

Task item: May I ask what TGI has been recorded for `C=C(C)[C@@H]1CCc2c(O)c(O)c(=O)cc(C)c2C1` ?
Reply: 35 µM

Task item: Fill in the blank: the reported TGI of CC(=O)OCC1OC(SC2=NC(=O)CS2)C(OC(C)=O)C(OC(C)=O)C1OC(C)=O (stereo unspecified) is ____.
Reply: > 100 µM

Task item: Entry under review: `COc1ccc2nc(C)cc(Sc3nc4ccccc4s3)c2c1` . Reported TGI?
Reply: 11.9 µM

Task item: GET /values?readout=TGI&item= Nc1c(C(=O)c2cccc(C(O)CO)c2)cnn1-c1ccc(F)cc1 (stereo unspecified)
Reply: > 25 µM

Task item: Can you share its TGI? I mean this compound: C=C(CN(CC)CC)C1(c2ccccc2)CC2(CCCC2)C(=O)O1 (stereo unspecified)
Reply: > 100 µM

Task item: # TGI lookup, item CCCC(O)c1cn(-c2cccc(S(=O)(=O)O)c2)nn1 (stereo unspecified)
Reply: > 100 µM

Task item: What value of TGI has been recorded for this entry: `CCN1CCN(c2cc(C(=O)Nc3cccc(Nc4ccc5c(OC)cccc5n4)c3)cc(C(F)(F)F)c2)CC1`
Reply: 1.33 µM

Task item: Form field: reported TGI of `CSc1nnc(SCc2nn3c(=O)cc(C)nc3s2)s1`
Reply: > 100 µM

Task item: Quick one: TGI of `O=C1N2CCC[C@H]2CS1(=O)=O` ?
Reply: 28.3 µM

Task item: Query: TGI; subject: `COc1ccc(-c2cc3ccccc3[nH]c2=O)cc1OC`
Reply: > 100 µM

Task item: Data request, read-out TGI, for Cc1cc(Cl)cc2c1NC(=O)C2(O)CC(=O)c1ccc(Br)cc1 (stereo unspecified)
Reply: > 100 µM

Task item: Value lookup for TGI; key = `c1ccc2c(Nc3ncco3)cccc2c1`
Reply: > 10 µM

Task item: What does the data say about its TGI? Entry: `COc1ccc2c(c1O)[C@@]13CCCC=C1[C@@H](C2)[N+](C)(C)CC3`
Reply: > 100 µM

Task item: Which TGI is reported for this compound? CC(c1ccccc1)n1cncc1C(=O)NN1CCN(C)CC1 (stereo unspecified)
Reply: > 10 µM

Task item: Consider the compound `CCCCNS(=O)(=O)c1ccc(-c2ccc3c(c2)-c2ccc(S(=O)(=O)NCCCC)cc2S3(=O)=O)cc1` and give its measured TGI.
Reply: 49.2 µM

Task item: Can you look up the measured TGI of `Oc1ccc2ccccc2c1OCc1nnc(CCCCCCCCc2nnc(COc3c(O)ccc4ccccc34)n2Nc2ccccc2)n1Nc1ccccc1` for me?
Reply: 56.2 µM

Task item: For `CN1CCN(Cc2ccc(NC(=O)c3[nH]ncc3Nc3ncnc4[nH]ccc34)cc2)CC1` , what is its reported TGI?
Reply: 0.959 µM

Task item: So what does the record say about TGI for `O=C1NC(=O)C(c2cccc(Cl)c2)=C1Nc1ccc(Cl)c(C(=O)O)c1` ?
Reply: > 25 µM

Task item: Quick check: TGI of Fc1ccc2c(c1)C1=C(CCC2)C(c2ccc(Cl)cc2)NC(=S)N1 (stereo unspecified) ?
Reply: 80.2 µM

Task item: Value lookup for TGI; key = `COc1ccc(Br)c(CN2CCc3ccccc32)c1OS(=O)(=O)c1ccc(C)cc1`
Reply: > 100 µM

Task item: Could you share which TGI value was measured for O=C1CC(C2(O)C(=O)Nc3ccc([N+](=O)[O-])cc32)c2ccccc21 (stereo unspecified) ?
Reply: > 100 µM

Task item: Name the recorded TGI for CC(C)N(C(=O)C12C3C4C5(C(=O)O)C(C1C35I)C42C(=O)O)C(C)C (stereo unspecified) .
Reply: > 100 µM

Task item: Name the reported TGI value associated with the compound `CC(=O)/C=C/c1ccccc1`
Reply: > 100 µM

Task item: Please report the recorded TGI for `O=c1cc(-c2ccccc2)[nH]c2c1CCCC2` .
Reply: > 100 µM

Task item: Request the reported TGI associated with `O=c1cc(-c2ccccc2)oc2c1ccc1[nH]c3ccccc3c(=O)c12`
Reply: > 100 µM
